Recorded values, source ChEMBL document CHEMBL1687848.

# Test system: Escherichia coli
# measurement-description: Antibacterial activity against Escherichia coli ATCC 25922 expressing qnrB gene and pBK-QnrB1 by broth microdilution method
# Type: functional
Hi there, I'd appreciate the recorded MBC for every entry that follows.
Answer format: numeric, µg/mL implied, no suffix.

Problem: Requested read-out: MBC. Entry: O=C(O)c1cn(C2CC2)c2cc(N3CCNCC3)c(F)cc2c1=O
Result: 0.125

Problem: Which MBC value belongs to CCn1cc(C(=O)O)c(=O)c2cc(F)c(N3CCNCC3)cc21 ?
Result: 0.5

Problem: Look at this molecule and give its reported MBC. C[C@H]1COc2c(N3CCN(C)CC3)c(F)cc3c(=O)c(C(=O)O)cn1c23.C[C@H]1COc2c(N3CCN(C)CC3)c(F)cc3c(=O)c(C(=O)O)cn1c23.O
Result: 0.25

Problem: Fill blank: measured MBC of the molecule COc1c(N2C[C@@H]3CCCN[C@@H]3C2)c(F)cc2c(=O)c(C(=O)O)cn(C3CC3)c12 is ____.
Result: 1
